Provenance of the data: patent US12338219B2

Test system: parasites (ring stage parasites, parasite growth)
Assay: Parasite LDH growth assay (Parasite Assay), antiparasite potency
Format: cell-based
Settings: 72 h, 72 hours growth, LDH readout; Table 3
Excerpt: Assessing Antiparasite Potency in a Parasite LDH Growth Assay (Parasite Assay) The parasite stock was maintained at […] in RPMI-Hepes media buffered with sodium bicarbonate and supplemented with […]. […] On the day of assay set up, a blood smear of the parasite culture was Giemsa stained and counted. […]
pEC50: −log10 of the molar value.
Measured pEC50, listed per entry for reference.

# COMPOUND, pEC50
records = [
    ("COCC[C@H]([C@@H]1C[C@H]1C(=O)N[C@@H]1CC(C)(C)Oc2cccc(OC(F)(F)F)c21)N1C(=N)NC(C)(C)CC1=O [Example 107B]", 7.96),
    ("CCC1(CC)CC(=O)N(C[C@@H]2C[C@H]2C(=O)N[C@@H]2c3ccccc3C[C@H]2O)C(=N)N1", 6.57),
    ("CCC1(CC)CC(=O)N(C[C@H]2C(C(=O)N[C@@H]3c4ccccc4OC(C)(C)[C@H]3O)C2(F)F)C(=N)N1 (some centres unmarked) [Example 18A]", 7.41),
    ("COCC[C@H]([C@@H]1C[C@H]1C(=O)NC1CC2(CCC2)Oc2ccccc21)N1C(=N)NC(C)(C)CC1=O (some centres unmarked) [Example 131A]", 8.17),
    ("CC1(C)CC(=O)N([C@H](c2cccnc2)[C@@H]2C[C@H]2C(=O)N[C@@H]2CC(C)(C)Oc3c(C(F)(F)F)ccc(F)c32)C(=N)N1 [Example 115A]", 8.18),
]

* * *

system: parasites (ring stage parasites, parasite growth); test: Parasite LDH growth assay (Parasite Assay), antiparasite potency; type: cell-based; conditions: 72 h, 72 hours growth, LDH readout; Table 3
pEC50: −log10 of the molar value.
Each entry gets rule not met if its pEC50 stays under 8, and rule met if its pEC50 is 8 or above.

# COMPOUND, CLASS
records = [
    ("CCC1(CC)CC(=O)N(C[C@@H]2C[C@H]2C(=O)N[C@H]2CCOc3ccccc32)C(=N)N1 [Example 4B]", "rule not met"),
    ("COCC[C@H]([C@@H]1C[C@H]1C(=O)N[C@H]1CC(C)(C)Oc2cccc(OC(F)(F)F)c21)N1C(=N)NC(C)(C)CC1=O [Example 107A]", "rule met"),
    ("CC1(C)CC(=O)N([C@H](c2cncc(Cl)c2)[C@@H]2C[C@H]2C(=O)N[C@H]2C[C@H](C(F)(F)F)Oc3ccccc32)C(=N)N1 [Example 60A]", "rule met"),
    ("COc1cccc2c1[C@@H](NC(=O)[C@@H]1C[C@H]1CN1C(=N)NC(C)(C)CC1=O)CC(C)(C)O2 [Example 73]", "rule not met"),
    ("CCC1(C)C[C@H](NC(=O)[C@@H]2C[C@H]2CN2C(=N)NC(C)(C)CC2=O)c2ccccc2O1 (stereo partly shown) [Example 78]", "rule not met"),
    ("CCC1(CC)CC(=O)N(CC2CC2C(=O)N[C@H]2CCOc3ccccc32)C(=N)N1 (stereo partly shown) [Example 4C]", "rule not met"),
]

* * *

system: parasites (ring stage parasites, parasite growth); assay: Parasite LDH growth assay (Parasite Assay), antiparasite potency; assay type: cell-based; conditions: 72 h, 72 hours growth, LDH readout; Table 3
Measured EC50, listed per entry for reference.
ASSAY_READOUT: EC50 (nM)

# COMPOUND, ASSAY_READOUT, OUTPUT_UNIT, OBSERVED
records = [
    ("CC1(C)CC(=O)N([C@H](c2cccnc2)[C@@H]2C[C@H]2C(=O)N[C@H]2CC(C)(C)Oc3c(C(F)(F)F)ccc(F)c32)C(=N)N1 [Example 115B]", "EC50", "nM", 1),
    ("CCC1(CC)CC(=O)N(C[C@@H]2C[C@H]2C(=O)N[C@@H]2C[C@@H](C(F)(F)F)Oc3ccccc32)C(=N)N1 [Example 8B]", "EC50", "nM", 5.3),
    ("CC1(C)CC(=O)N(C(c2cccc(C#N)c2)[C@@H]2C[C@H]2C(=O)NC2CC(C)(C)Oc3ccc(F)cc32)C(=N)N1 (stereo partly shown) [Example 53A]", "EC50", "nM", 3.1),
    ("CC1(C)CC(=O)N(C[C@@H]2C[C@H]2C(=O)N[C@H]2CC(C)(C)Oc3ccc(Cl)cc32)C(=N)N1 [Example 95]", "EC50", "nM", 110),
    ("CC1(C)CC(=O)N(C[C@@H]2C[C@H]2C(=O)N[C@H]2CC(C)(C)Oc3cc(Cl)ccc32)C(=N)N1 [Example 90]", "EC50", "nM", 225),
    ("COCC[C@H]([C@@H]1C[C@H]1C(=O)N[C@@H]1CC(C)(C)Oc2cccc(Cl)c21)N1C(=N)NC(C)(C)CC1=O [Example 116B]", "EC50", "nM", 18),
    ("CCC1(CC)CC(=O)N([C@H](c2cccnc2)[C@@H]2C(C)[C@H]2C(=O)N[C@H]2CC(C)(C)Oc3ccccc32)C(=N)N1 (stereo partly shown) [Example 56B]", "EC50", "nM", 0.7),
    ("COCC[C@H]([C@@H]1C[C@H]1C(=O)N[C@H]1CC(C)(C)Oc2cc(C)ccc21)N1C(=N)NC(C)(C)CC1=O [Example 83A]", "EC50", "nM", 6.6),
    ("COCC[C@H]([C@@H]1C[C@H]1C(=O)N[C@H]1CC(C)(C)Oc2cccc(Cl)c21)N1C(=N)NC(C)(C)CC1=O [Example 116A]", "EC50", "nM", 0.8),
    ("CCC1(CC)CC(=O)N(C[C@H]2C[C@@H]2C(=O)N[C@H]2CCOc3ccccc32)C(=N)N1 [Example 4A]", "EC50", "nM", 94),
    ("CCC1(CC)CC(=O)N(C[C@@H]2C[C@H]2C(=O)N[C@H]2CC(C)(C)Oc3ccc(F)cc32)C(=N)N1 [Example 7A]", "EC50", "nM", 135),
    ("COCC[C@H]([C@@H]1C[C@H]1C(=O)N[C@H]1CC(C)(C)Oc2cc(C)c(Cl)cc21)N1C(=N)NC(C)(C)CC1=O [Example 137B]", "EC50", "nM", 6.4),
    ("CC[C@]1(C)CC(=O)N([C@H](CCOC)[C@@H]2C[C@H]2C(=O)NC2CC(C)(C)Oc3ccc(OC(F)(F)F)cc32)C(=N)N1 (stereo partly shown) [Example 129A]", "EC50", "nM", 1.3),
]

* * *

system: parasites (ring stage parasites, parasite growth); test: Parasite LDH growth assay (Parasite Assay), antiparasite potency; format: cell-based; conditions: 72 h, 72 hours growth, LDH readout; Table 3
Measured EC50, listed per entry for reference.

# COMPOUND, ASSAY_TARGET, EC50
records = [
    ("CCC1(CC)CC(=O)N([C@H](c2cccnc2)[C@H]2[C@H](C(=O)N[C@H]3C[C@H](C(F)(F)F)Oc4ccccc43)C2(C)C)C(=N)N1 [Example 44B]", "parasites (ring stage parasites, parasite growth)", "0.9 nM"),
    ("COc1cccc2c1C(NC(=O)[C@@H]1C[C@H]1[C@@H](c1cccnc1)N1C(=N)NC(C)(C)CC1=O)CC(C)(C)O2 (stereo partly drawn) [Example 96A]", "parasites (ring stage parasites, parasite growth)", "2.7 nM"),
    ("CCC1(CC)CC(=O)N([C@H](CCOC)[C@@H]2C[C@H]2C(=O)N[C@@H]2CC(C)(C)Oc3ccccc32)C(=N)N1 [Example 1B]", "parasites (ring stage parasites, parasite growth)", "250 nM"),
]

* * *

system: parasites (ring stage parasites, parasite growth); experiment: Parasite LDH growth assay (Parasite Assay), antiparasite potency; type: cell-based; conditions: 72 h, 72 hours growth, LDH readout; Table 3
pEC50: −log10 of the molar value.
Measured pEC50, listed per entry for reference.
ASSAY_READOUT: pEC50

# MOLECULE, OBSERVED
data = [
    ("CC1(C)CC(=O)N([C@H](c2cccnc2)[C@@H]2C[C@H]2C(=O)NC2CC(C)(C)Oc3c(Cl)cccc32)C(=N)N1 (stereo partly drawn) [Example 121A]", 8.60),
    ("CCC1(CC)CC(=O)N(C[C@H]2C[C@@H]2C(=O)N[C@@H]2c3ccccc3C[C@H]2O)C(=N)N1 [Example 6A]", 6.73),
    ("CCC1(CC)CC(=O)N([C@H](c2cccnc2)[C@@H]2C[C@H]2C(=O)N[C@H]2c3ccccc3OC(C)(C)[C@@H]2O)C(=N)N1 [Example 11A]", 8.39),
    ("CCC1(CC)CC(=O)N([C@H](c2cccnc2)[C@@H]2C[C@H]2C(=O)N[C@@H]2c3ccccc3C[C@H]2O)C(=N)N1 [Example 10]", 7.57),
    ("CCC1(CC)CC(=O)N([C@H](c2cccnc2)[C@@H]2C[C@H]2C(=O)N[C@H]2CC(C)(C)Oc3ccccc32)C(=N)N1 [Example 2]", 9.05),
    ("CC1(C)CC(=O)N([C@H](c2cccnc2)[C@@H]2C[C@H]2C(=O)N[C@@H]2c3ccccc3OC(C)(C)[C@H]2O)C(=N)N1 [Example 27]", 7.11),
]
